Experiment: The drug is tested on Z-011 corresponding to mouse gut metagenome with ENA study accession number: PRJEB37062 and ENA sample accession number: ERS12561811 for biotransformation under anaerobic condition. The drug concentrations were measured over 9 timepoints collected between 0 and 24 hours of incubation by liquid-chromatography-coupled mass spectrometry (LC–MS); note: call rule not given here
Settings: 2 µM
measured.property: Bacterial Biotransformation

COc1ccc2c(c1)c(CC(=O)O)c(C)n2C(=O)c1ccc(Cl)cc1 | Compound NOT metabolized
CC(C)(C)NCC(O)c1cc(Cl)c(N)c(Cl)c1 (stereo unspecified) | Compound NOT metabolized
C[C@@H](c1ncncc1F)[C@](O)(Cn1cncn1)c1ccc(F)cc1F | Compound NOT metabolized
CC(=O)O[C@]1(C(C)=O)CC[C@H]2[C@@H]3C=C(C)C4=CC(=O)CC[C@]4(C)[C@H]3CC[C@@]21C [MEGESTROL ACETATE] | Compound metabolized

Quick one: Bacterial Biotransformation for CC(C)(C)NC[C@H](O)COc1nsnc1N1CCOCC1.O=C(O)/C=C\C(=O)O [TIMOLOL MALEATE] ?
Compound NOT metabolized

Looking for the measured Bacterial Biotransformation of `Cc1cc2c(s1)Nc1ccccc1N=C2N1CCN(C)CC1` , can you help?
Compound NOT metabolized

State the recorded Bacterial Biotransformation for this entry: Cc1cc(C)cc(OCC2CNC(=O)O2)c1 (stereo unspecified)
Compound NOT metabolized

Looking for the measured Bacterial Biotransformation of CC(=O)OCC(=O)[C@@]1(OC(C)=O)[C@@H](C)C[C@H]2[C@@H]3C[C@H](F)C4=CC(=O)C=C[C@]4(C)[C@@]3(F)[C@@H](O)C[C@@]21C [DIFLORASONE DIACETATE] , can you help?
Compound metabolized

###

Assay: The drug is tested on WLS-073 corresponding to human gut metagenome with ENA study accession number: PRJEB37062 and ENA sample accession number: ERS12561749 for biotransformation under anaerobic condition. The drug concentrations were measured over 9 timepoints collected between 0 and 24 hours of incubation by liquid-chromatography-coupled mass spectrometry (LC–MS)
Conditions: 2 µM
measured.property: Bacterial Biotransformation

Observe how each entry below is paired with its result.
Nc1nc(N)nc(-c2cc(Cl)ccc2Cl)n1.O=C(O)/C=C\C(=O)O [IRSOGLADINE MALEATE] | Compound NOT metabolized
C#C[C@]1(OC(C)=O)CC[C@H]2[C@@H]3CCC4=CC(=O)CC[C@@H]4[C@H]3CC[C@@]21C [NORETHINDRONE ACETATE] | Compound metabolized
O=C(O)c1cc(/N=N/c2ccc(S(=O)(=O)Nc3ccccn3)cc2)ccc1O | Compound metabolized
Br.COc1ccc2c(c1)[C@]13CCCC[C@@H]1[C@H](C2)N(C)CC3.O [DEXTROMETHORPHAN HYDROBROMIDE] | Compound NOT metabolized

Given `C[C@]12CCC(=O)C=C1[C@@H]1C[C@@H]1[C@H]1[C@@H]3[C@@H]4C[C@@H]4[C@@]4(CCC(=O)O4)[C@@]3(C)CC[C@@H]12` , state its recorded Bacterial Biotransformation.
Compound metabolized

Quick one: Bacterial Biotransformation for CN(C)CCOC(C)(c1ccccc1)c1ccccn1.O=C(O)CCC(=O)O (configuration not stated) [DOXYLAMINE SUCCINATE] ?
Compound NOT metabolized

Which Bacterial Biotransformation value belongs to `CC[C@H](C)C(=O)O[C@H]1CCC=C2C=C[C@H](C)[C@H](CC[C@@H]3C[C@@H](O)CC(=O)O3)[C@H]21` ?
Compound NOT metabolized

###

Experiment: The drug is tested on WLS-370 corresponding to human gut metagenome with ENA study accession number: PRJEB37062 and ENA sample accession number: ERS12561793 for biotransformation under anaerobic condition. The drug concentrations were measured over 9 timepoints collected between 0 and 24 hours of incubation by liquid-chromatography-coupled mass spectrometry (LC–MS)
Details: 2 µM
measured.property: Bacterial Biotransformation

Known Bacterial Biotransformation results, listed for orientation:
CN1CCC(OC(c2ccccc2)c2ccccc2)CC1 | Compound metabolized
Nc1nnc(-c2cccc(Cl)c2Cl)c(N)n1 | Compound NOT metabolized
CNCC[C@H](Oc1cccc2ccccc12)c1cccs1 | Compound NOT metabolized
COc1cc2nc(N3CCN(C(=O)C4CCCO4)CC3)nc(N)c2cc1OC (centres undefined) | Compound NOT metabolized
O=C1C(CC[S+]([O-])c2ccccc2)C(=O)N(c2ccccc2)N1c1ccccc1 (centres undefined) | Compound metabolized
CN[C@H]1CC[C@@H](c2ccc(Cl)c(Cl)c2)c2ccccc21 | Compound metabolized
CC(C)c1c(CN(C)C(C)Cc2ccccc2)n(C)n(-c2ccccc2)c1=O (centres undefined) | Compound metabolized
Nc1nc(NC2CC2)c2ncn([C@H]3C=C[C@@H](CO)C3)c2n1.Nc1nc(NC2CC2)c2ncn([C@H]3C=C[C@@H](CO)C3)c2n1.O=S(=O)(O)O [ABACAVIR SULFATE] | Compound NOT metabolized

Which Bacterial Biotransformation value belongs to `C[C@]12C=CC(=O)C=C1CC[C@@H]1[C@@H]2C(=O)C[C@@]2(C)[C@H]1CC[C@]2(O)C(=O)CO` ?
Compound metabolized

###

Assay: The drug is tested on Z-020 corresponding to rabbit gut metagenome with ENA study accession number: PRJEB37062 and ENA sample accession number: ERS12561819 for biotransformation under anaerobic condition. The drug concentrations were measured over 9 timepoints collected between 0 and 24 hours of incubation by liquid-chromatography-coupled mass spectrometry (LC–MS)
Details: 2 µM
measured.property: Bacterial Biotransformation

Examples with their reported Bacterial Biotransformation follow.
CC(=O)OCC(=O)NCCCOc1cccc(CN2CCCCC2)c1 [ROXATIDINE ACETATE] | Compound metabolized
CC(NC(C)(C)C)C(=O)c1cccc(Cl)c1 (stereo not given) [BUPROPION] | Compound NOT metabolized
COc1cc(NC(C)CCCN)c2ncccc2c1.O=P(O)(O)O.O=P(O)(O)O (stereo not given) [PRIMAQUINE PHOSPHATE] | Compound NOT metabolized
CCN(C)C(=O)Oc1cccc([C@H](C)N(C)C)c1.O=C(O)C(O)C(O)C(=O)O [RIVASTIGMINE TARTRATE] | Compound NOT metabolized
CC(=O)OCC(CCn1cnc2cnc(N)nc21)COC(C)=O [FAMCICLOVIR] | Compound metabolized

Value lookup for Bacterial Biotransformation; key = O=C(O)c1cc(/N=N/c2ccc(S(=O)(=O)Nc3ccccn3)cc2)ccc1O [SULFASALAZINE]
Compound metabolized

I have this compound here, COc1cc2nc(N3CCN(C(=O)C4CCCO4)CC3)nc(N)c2cc1OC (stereo not given) [TERAZOSIN] , and I need its recorded Bacterial Biotransformation.
Compound NOT metabolized

For the compound shown here, CC(=O)O[C@H]1C(=O)[C@@]2(C)[C@H]([C@H](OC(=O)c3ccccc3)[C@]3(O)C[C@H](OC(=O)[C@H](O)[C@@H](NC(=O)c4ccccc4)c4ccccc4)C(C)=C1C3(C)C)[C@]1(OC(C)=O)CO[C@@H]1C[C@@H]2O [PACLITAXEL] , give the reported Bacterial Biotransformation.
Compound metabolized

Please give the measured Bacterial Biotransformation for this compound: `CN1CCC(OC(c2ccccc2)c2ccccc2)CC1`
Compound NOT metabolized

###

Assay: The drug is tested on WLS-098 corresponding to human gut metagenome with ENA study accession number: PRJEB37062 and ENA sample accession number: ERS12561754 for biotransformation under anaerobic condition. The drug concentrations were measured over 9 timepoints collected between 0 and 24 hours of incubation by liquid-chromatography-coupled mass spectrometry (LC–MS)
Conditions: 2 µM
measured.property: Bacterial Biotransformation

Known results for compounds:
C#C[C@]1(OC(C)=O)CC[C@H]2[C@@H]3CCC4=CC(=O)CC[C@@H]4[C@H]3CC[C@@]21C [NORETHINDRONE ACETATE] | Compound metabolized
CN(C/C=C/C#CC(C)(C)C)Cc1cccc2ccccc12 [TERBINAFINE] | Compound NOT metabolized
c1ccc2[nH]c(-c3cscn3)nc2c1 [THIABENDAZOLE] | Compound metabolized
CCN(CC)C(=O)C1(c2ccccc2)CC1CN (stereo not given) | Compound NOT metabolized

Kindly consider the entry below.
Could you share which Bacterial Biotransformation value was measured for N=C(N)NC(=O)Cc1c(Cl)cccc1Cl [GUANFACINE] ?
Compound NOT metabolized

###

Conditions: human gut metagenome, 24 h, 2 µM
measured.property: Bacterial Biotransformation

CN1[C@@H]2CC[C@H]1C[C@@H](OC(=O)[C@H](CO)c1ccccc1)C2 | Compound metabolized
O=C1CN2Cc3c(ccc(Cl)c3Cl)N=C2N1 [ANAGRELIDE] | Compound metabolized
COc1ccc2c(c1)c(CC(=O)O)c(C)n2C(=O)c1ccc(Cl)cc1 | Compound metabolized
CC(CCc1ccccc1)NCC(O)c1ccc(O)c(C(N)=O)c1 (centres undefined) | Compound NOT metabolized
COc1ccc(/C=C/C(=O)Nc2ccccc2C(=O)O)cc1OC | Compound metabolized
CCN(C)C(=O)Oc1cccc([C@H](C)N(C)C)c1.O=C(O)C(O)C(O)C(=O)O [RIVASTIGMINE TARTRATE] | Compound NOT metabolized

Entry C#C[C@]1(OC(C)=O)CC[C@H]2[C@@H]3CCC4=CC(=O)CC[C@@H]4[C@H]3CC[C@@]21C [NORETHINDRONE ACETATE] has what Bacterial Biotransformation?
Compound NOT metabolized

Please report the recorded Bacterial Biotransformation for `O=C(CCCN1CCC2(CC1)C(=O)NCN2c1ccccc1)c1ccc(F)cc1` .
Compound metabolized

Field request: Bacterial Biotransformation | item: `CCc1oc2ccccc2c1C(=O)c1cc(Br)c(O)c(Br)c1`
Compound metabolized

// provenance: ChEMBL document CHEMBL5724914
